- System: Male Swiss albino mice
- test: Drug Effects on Phenylbenzoquinone-induced Writhing in Mice
- Assay type: in vivo
- experimental.context: 10 mg/kg, p.o., PBQ i.p. 60 minutes after dosing, writhes counted over 15 minutes
observable: inhibition (Phenylbenzoquinone Writhing in Mice) (%)

1) O=C(O)C[C@@]12CC[C@@H]1CC(Cc1ccccc1)c1c2[nH]c2ccccc12 (relative stereo) [Example 7] :: 0
2) Cc1c(Cl)ccc2c3c([nH]c12)[C@@]1(CC(=O)O)CC[C@H]1CC3 (relative stereo) [Example 2] :: 56
3) CCc1cccc2c3c([nH]c12)[C@]1(CC(=O)O)C[C@@H]1CC3 (relative stereo) [Example 6] :: 27
4) O=C(O)C[C@]12CC[C@H]1CCc1c2[nH]c2ccccc12 (relative stereo) [Example 4] :: 21
5) CCCc1cc(C(C)=O)cc2c3c([nH]c12)[C@@]1(CC(=O)O)CC[C@H]1CC3 (relative stereo) [Example 5] :: 56
6) Cc1c(Cl)ccc2c3c([nH]c12)[C@]1(CC(=O)O)CC[C@@H]1CC3Cc1ccccc1 (relative stereo) [Example 1] :: 73
